Recorded inhibition for the following compounds
Molecular target: L-lactate dehydrogenase (Plasmodium falciparum (isolate CDC / Honduras)) (UniProt Q27743)
Sequence (Q27743 whole entry, looked up): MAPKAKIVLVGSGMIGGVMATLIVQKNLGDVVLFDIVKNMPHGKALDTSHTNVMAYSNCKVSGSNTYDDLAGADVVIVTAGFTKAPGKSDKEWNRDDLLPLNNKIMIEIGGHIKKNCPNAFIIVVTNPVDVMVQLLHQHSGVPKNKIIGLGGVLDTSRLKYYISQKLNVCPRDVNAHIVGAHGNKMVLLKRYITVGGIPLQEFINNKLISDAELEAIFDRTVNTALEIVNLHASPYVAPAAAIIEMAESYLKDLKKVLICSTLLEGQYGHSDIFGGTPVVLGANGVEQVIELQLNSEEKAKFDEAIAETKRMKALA
Experiment: PfLDH activity inhibition – cell lysate, 3D7 strain, counter-screen for P. falciparum growth inhibition project (AID 2304);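 also: 0% = vehicle and 100% = reference inhibitor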
Details: P. falciparum 3D7 crude extract, LDH APAD/NBT absorbance; at 2 µM; stronger effect = higher value
Provide only the numeric value, understood in %.

Field: example entries. Status: answers known.
{"compound": "O=S1(=O)NCc2ccc(Nc3nccc(Nc4ccc5c(cnn5Cc5ccccc5)c4)n3)cc21", "target.under.test": "L-lactate dehydrogenase (Plasmodium falciparum (isolate CDC / Honduras)) (UniProt Q27743)", "observed.result": -1}
{"compound": "CCOC(=O)c1nc2ccc(SC3CCCCC3)cn2c1Br", "target.under.test": "L-lactate dehydrogenase (Plasmodium falciparum (isolate CDC / Honduras)) (UniProt Q27743)", "observed.result": 3}
{"compound": "COc1c(CN2CCCC2)cccc1-c1cc2c(-c3ccc(C(=O)O)c(C(C)C)c3)ccnc2[nH]1", "target.under.test": "L-lactate dehydrogenase (Plasmodium falciparum (isolate CDC / Honduras)) (UniProt Q27743)", "observed.result": -1}
{"compound": "COc1cc(Cc2cnc(N)nc2N)cc(OCCCS(=O)(=O)O)c1OC", "target.under.test": "L-lactate dehydrogenase (Plasmodium falciparum (isolate CDC / Honduras)) (UniProt Q27743)", "observed.result": 1}
{"compound": "O=C(NNC(=O)c1ccc(CCN2CCC(c3nc(COCC(F)(F)F)c(-c4ccc(F)cc4)o3)CC2)cc1)Nc1ccc(Oc2ccccc2)cc1", "target.under.test": "L-lactate dehydrogenase (Plasmodium falciparum (isolate CDC / Honduras)) (UniProt Q27743)", "observed.result": 4}

Reported inhibition ( COc1cc2nc(N(C)Cc3cc4c(Cl)cccc4s3)nc(N)c2cc1OC ) = 4

CCOC(=O)c1c(NC(=O)c2ccccc2)sc2c(O)c(CNC3CCCCC3)ccc12 yielded inhibition of 1

# inhibition (compound: Nc1nc(N)c2c(Oc3ccc(Cl)c(Cl)c3)cccc2n1 ) is -5

The compound identified as COc1ccc2nccc([C@@H](O)CN3CCC(NC(=O)c4ccc(C5(C(F)(F)F)N=N5)cc4)CC3)c2c1 registered its inhibition at -8

Form: compound = CCc1cn2c3c(cc(C(=O)N[C@@H](Cc4ccccc4)[C@H](O)CNC(C)(C)CCCC(C)C)cc13)N(C)S(=O)(=O)C2 ; inhibition = 8

COc1cccc(-c2cc(C(F)(F)F)n3ncc(C(=O)Nc4cc(C)ccc4O)c3n2)c1 yielded inhibition of 3

----------
Assay: liver-stage malaria parasite growth inhibition, primary screen, cell-based, HepG2, luciferase luminescence, HepG2 viability (AID 624349);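 also: 100% = mean of DMSO negative control wells on the same plate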
Details: P. berghei liver stage in HepG2, luciferase luminescence, concentration not given here; stronger effect = lower value
quantity: parasite load remaining (%)
State just the number; it will be interpreted in %.

Worked cases, parasite load remaining given:
{"compound": "CC1C/C=C/C=C/C=C/C=C/C(O[C@@H]2O[C@H](C)[C@@H](O)[C@H](N)[C@@H]2O)CC2OC(O)(CC(O)CC3OC3/C=C/C(=O)O1)CC(O)C2C(=O)O (stereo partly drawn)", "measurement.unit": "%", "parasite load remaining": 78.2}
{"compound": "CCOC(=O)C(C)(N)Cc1ccc(O)c(O)c1 (stereo not drawn)", "measurement.unit": "%", "parasite load remaining": 15}
{"compound": "O=C1c2ccccc2-c2n[nH]c3cccc1c23", "measurement.unit": "%", "parasite load remaining": 34}
{"compound": "NC[C@@H]1O[C@H](O[C@@H]2[C@@H](CO)OC(O[C@@H]3[C@@H](O)[C@H](N)C[C@H](N)[C@H]3O[C@H]3O[C@H](CO)[C@@H](O)[C@H](O)[C@H]3N)[C@@H]2O)[C@H](N)[C@@H](O)[C@@H]1O (stereo partly drawn)", "measurement.unit": "%", "parasite load remaining": 141}
{"compound": "O=c1cnn([C@@H]2O[C@H](CO)[C@@H](O)[C@H]2O)c(=O)[nH]1", "measurement.unit": "%", "parasite load remaining": 51.8}

Form: compound = O=C(O)CC(O)(CC(=O)O)C(=O)O ; parasite load remaining = 61.3

// CCCc1nc(C(C)(C)O)c(C(=O)O)n1Cc1ccc(-c2ccccc2-c2nn[nH]n2)cc1 : parasite load remaining value = 103

Reported parasite load remaining of COc1ccc(C[C@H](C)NC[C@@H](O)c2ccc(O)c(NC=O)c2)cc1 : 66.9

----------
Target: Protein kinase 7 (PK7), Plasmodium falciparum 3D7 (PF3D7_0213400)
Assay: inhibition of Plasmodium PK7 catalytic activity – biochemical, TCAMS antimalarial set, Kinase-Glo luminescence (AID 1159587)
Conditions: recombinant PfPK7, Kinase-Glo ATP depletion luminescence
Calls of active or inactive are those of the source. The rule behind the calls is not given here.
quantity: outcome

Worked set:
{"compound": "CCCCn1c(=N)c(C(=O)NCc2cccnc2)cc2c(=O)n3cccc(C)c3nc21", "observed.result": "inactive"}
{"compound": "O=c1[nH]ccc2nc(N[C@@H]3CCNC3)nc(Nc3ccc4c(c3)S(=O)(=O)CC4)c12", "observed.result": "inactive"}
{"compound": "COc1ccc2c(CNCCCCCCNCc3c(OC)ccc4cc(OC)ccc34)c(OC)ccc2c1", "observed.result": "inactive"}
{"compound": "O=C(Nc1ccsc1)Nc1cccc(-c2cccc(-c3nc4ccc(F)cc4[nH]3)c2)c1", "observed.result": "inactive"}
{"compound": "CN(C(=O)c1cc2c(-c3cncnc3)cccc2[nH]1)c1ccccc1", "observed.result": "inactive"}
{"compound": "Cc1[nH]c(C)c(-c2ccc(Oc3ccc(Cl)cc3)cc2)c(=O)c1I", "observed.result": "inactive"}

Here is the next item to consider.
Just so you know, measured outcome for O=C(NCCCCN1CCN(c2nsc3ccccc23)CC1)c1ccccc1C(=O)NCCCCN1CCN(c2nsc3ccccc23)CC1 came out at inactive

----------
Molecular target: L-lactate dehydrogenase (Plasmodium falciparum (isolate CDC / Honduras))
Test: PfLDH activity inhibition – cell lysate, 3D7 strain, counter-screen for P. falciparum growth inhibition project (AID 2304);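 also: 0% = vehicle and 100% = reference inhibitor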
Details: P. falciparum 3D7 crude extract, LDH APAD/NBT absorbance; at 2 µM; stronger effect = higher value
quantity: inhibition (%)
Please give a number only; it is taken to be in %.

In the examples that follow, each entry is paired with its recorded inhibition.
{"compound": "CN1CCc2cc(NS(=O)(=O)c3ccc(-c4ccc(Cl)cc4)cc3)c(OCCCN3CCCCC3)cc2CC1", "target.under.test": "L-lactate dehydrogenase (Plasmodium falciparum (isolate CDC / Honduras))", "quantity": "inhibition", "observed.result": 0}
{"compound": "CCn1c(-c2nonc2N)nc2c(-c3cccc(NC(=O)Nc4cccc(Cl)c4)c3)ncc(OCCCN)c21", "target.under.test": "L-lactate dehydrogenase (Plasmodium falciparum (isolate CDC / Honduras))", "quantity": "inhibition", "observed.result": -1}

So, CCN(CC)CCNC(=O)c1ccc(N=Cc2c(O)[nH]c3ccc(S(=O)(=O)Cc4c(Cl)cccc4Cl)cc23)cc1 ? Its inhibition was 3

The recorded inhibition for CC1CCCCC1N(C)C1CCN(CCCNC(=O)C=Cc2ccccc2Cl)CC1 (stereo not given) is 3

Item: O=C(c1cccc(COc2ccc3c(c2)CCN(C2CCCC2)CC3)c1)N1CCN(c2ccncc2)CC1 | inhibition: -8

----------
Test: survival rescue of mitochondrial mutant cells in low glucose, primary screen, MELAS cybrids, Rieske KO mouse fibroblasts, CellTiter-Glo (AID 1508586);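 also: z relative to plate mean and SD of compound and empty wells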
Conditions: Rieske KO mouse fibroblast survival, CellTiter-Glo 72 h
quantity: z-score

{"molecule": "COc1ccc(C[C@H](C)NC[C@@H](O)c2ccc(O)c(NC=O)c2)cc1", "observed.result": -0.643}
{"molecule": "Fc1ccc(C2CCNCC2COc2ccc3c(c2)OCO3)cc1 (centres undefined)", "observed.result": 0.964}
{"molecule": "O=c1c(O)c(-c2ccc(O)cc2)oc2cc(O)cc(O)c12", "observed.result": 0.291}

Reported z-score ( Nc1ccn(C2CSC(CO)O2)c(=O)n1 (centres undefined) ) = 0.414

z-score recorded for this molecule, Cc1onc(-c2ccccc2)c1C(=O)NC1C(=O)N2C1SC(C)(C)C2C(=O)O (centres undefined) , is 0.0389

Input CN(C(=O)CCCOc1ccc2[nH]c(=O)ccc2c1)C1CCCCC1 . Output z-score: -0.471

CC(C)(C)NC(=O)[C@@H]1C[C@@H]2CCCC[C@@H]2CN1C[C@@H](O)[C@H](Cc1ccccc1)NC(=O)[C@H](CC(N)=O)NC(=O)c1ccc2ccccc2n1 yielded z-score of -1.19

z-score measured on CCCCc1nc(Cl)c(CO)n1Cc1ccc(-c2ccccc2-c2nnn[nH]2)cc1 = -1.13

Value of measured z-score for the entry O=C(O)CCc1ccc(NCc2cccc(Oc3ccccc3)c2)cc1 : 0.82

Just so you know, measured z-score for CCCCCCCCCCCCCCCC(=O)OCC(O)[C@H]1OC(=O)C(O)=C1O (some centres undefined) came out at -0.164
